System: 598228-144-R-J1-PDC complex spheroids, viability
assay explanation: Anticancer human tumor 598228-144-R-J1-PDC patient-derived serous endometrial adenocarcinoma cell line growth inhibition [CLK]; active means viability on the fitted dose curve at most 10% of control; inactive means the rest
condition set: second compound 1 µM; first compound 0.0949 µM
Hi there, use one of these labels in your reply, thanks! active, inactive

Take a look at these entries with their results.
C=CC(=O)Nc1cc(Nc2nccc(-c3cn(C)c4ccccc34)n2)c(OC)cc1N(C)CCN(C)C + CN1CCN(c2cc(C(=O)Nc3cc4cc(-c5cnn(C)c5)ccc4cn3)ccn2)CC1
active
C=CC(=O)Nc1cc(Nc2nccc(-c3cn(C)c4ccccc34)n2)c(OC)cc1N(C)CCN(C)C + CNC(=O)c1ccc(Nc2nc(OC3CCCC3)c3c(-c4ccc5nc(C)oc5c4)c[nH]c3n2)c(OC)c1
inactive

// next entry
input: For CC(C)CC(NC(=O)C(Cc1ccccc1)NC(=O)c1cnccn1)B(O)O (stereo not drawn) + CN1CCN(c2cc(C(=O)Nc3cc4cc(-c5cnn(C)c5)ccc4cn3)ccn2)CC1 , which call appears in the assay record?
output: active

====

Tested on: 598228-144-R-J1-PDC complex spheroids, viability
assay explanation: Anticancer human tumor 598228-144-R-J1-PDC cell line growth inhibition [CLK];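 further: spheroids exposed to compounds for seven days before readout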
condition set: second compound 1 µM; first compound 1 µM; stronger effect = lower value
Classify: true when viability, T/C is strictly less than 30%; false when viability, T/C is not.

These solved cases illustrate the format of a correct answer.
CC(=O)O[C@H]1C(=O)[C@@]2(C)[C@H]([C@H](OC(=O)c3ccccc3)[C@]3(O)C[C@H](OC(=O)[C@H](O)[C@@H](NC(=O)c4ccccc4)c4ccccc4)C(C)=C1C3(C)C)[C@]1(OC(C)=O)CO[C@@H]1C[C@@H]2O + CNC(=O)c1ccc(Nc2nc(OC3CCCC3)c3c(-c4ccc5nc(C)oc5c4)c[nH]c3n2)c(OC)c1
false
C=C(F)C(=O)N1CCN(c2nc(OCC3CCCN3C)nc3c2CCN(c2cccc4cccc(Cl)c24)C3)CC1CC#N (stereo not given) + CN1CCN(c2cc(C(=O)Nc3cc4cc(-c5cnn(C)c5)ccc4cn3)ccn2)CC1
true
CCN1CCN(Cc2ccc(Nc3ncc(F)c(-c4cc(F)c5nc(C)n(C(C)C)c5c4)n3)nc2)CC1 + CN1CCN(c2cc(C(=O)Nc3cc4cc(-c5cnn(C)c5)ccc4cn3)ccn2)CC1
true
O=c1[nH]cc(F)c(=O)[nH]1 + CN1CCN(c2cc(C(=O)Nc3cc4cc(-c5cnn(C)c5)ccc4cn3)ccn2)CC1
true
C=C(F)C(=O)N1CCN(c2nc(OCC3CCCN3C)nc3c2CCN(c2cccc4cccc(Cl)c24)C3)CC1CC#N (stereo not given) + CNC(=O)c1ccc(Nc2nc(OC3CCCC3)c3c(-c4ccc5nc(C)oc5c4)c[nH]c3n2)c(OC)c1
false
COc1ccc([C@@H](O)c2cc(-c3ncnc4cc(N5CCOCC5)ccc34)c(F)cc2Cl)nn1 + CN1CCN(c2cc(C(=O)Nc3cc4cc(-c5cnn(C)c5)ccc4cn3)ccn2)CC1
true
CCN1CCN(Cc2ccc(Nc3ncc(F)c(-c4cc(F)c5nc(C)n(C(C)C)c5c4)n3)nc2)CC1 + CNC(=O)c1ccc(Nc2nc(OC3CCCC3)c3c(-c4ccc5nc(C)oc5c4)c[nH]c3n2)c(OC)c1
false
Nc1ccccc1NC(=O)c1ccc(CNC(=O)OCc2cccnc2)cc1 + CN1CCN(c2cc(C(=O)Nc3cc4cc(-c5cnn(C)c5)ccc4cn3)ccn2)CC1
true
CC(Nc1ccc2c(c1)OCCn1cc(N3C(=O)OCC3C(F)F)nc1-2)C(N)=O (stereo not given) + CNC(=O)c1ccc(Nc2nc(OC3CCCC3)c3c(-c4ccc5nc(C)oc5c4)c[nH]c3n2)c(OC)c1
false

input: Input CCCS(=O)(=O)Nc1ccc(F)c(C(=O)c2c[nH]c3ncc(-c4ccc(Cl)cc4)cc23)c1F + CN1CCN(c2cc(C(=O)Nc3cc4cc(-c5cnn(C)c5)ccc4cn3)ccn2)CC1 ; condition: viability, T/C strictly below 30%. Does it hold?
output: true

====

Listing of recorded IC50 by entry.
Test system: 598228-144-R-J1-PDC complex spheroids, viability
assay explanation: Anticancer human tumor 598228-144-R-J1-PDC cell line growth inhibition [CLK];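 further: spheroids exposed to compounds for seven days before readout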
condition set: curve of first compound; second compound 10 µM

Sample records with IC50:
C=CC(=O)N1CCN(c2nc(=O)n(-c3c(C)ccnc3C(C)C)c3nc(-c4c(O)cccc4F)c(F)cc23)C(C)C1 (stereo not given) + CN1CCN(c2cc(C(=O)Nc3cc4cc(-c5cnn(C)c5)ccc4cn3)ccn2)CC1
< 0.0316 µM
CCN1CCN(Cc2ccc(Nc3ncc(F)c(-c4cc(F)c5nc(C)n(C(C)C)c5c4)n3)nc2)CC1 + CNC(=O)c1ccc(Nc2nc(OC3CCCC3)c3c(-c4ccc5nc(C)oc5c4)c[nH]c3n2)c(OC)c1
> 1 µM
CC(C)CC(NC(=O)C(Cc1ccccc1)NC(=O)c1cnccn1)B(O)O (stereo not given) + CNC(=O)c1ccc(Nc2nc(OC3CCCC3)c3c(-c4ccc5nc(C)oc5c4)c[nH]c3n2)c(OC)c1
0.00196 µM

Entry under test: C=CC(=O)N1CCN(c2nc(=O)n(-c3c(C)ccnc3C(C)C)c3nc(-c4c(O)cccc4F)c(F)cc23)C(C)C1 (stereo not given) + CNC(=O)c1ccc(Nc2nc(OC3CCCC3)c3c(-c4ccc5nc(C)oc5c4)c[nH]c3n2)c(OC)c1 . Its IC50 was > 10 µM

According to the records, this compound COc1c(OCCCN2CCOCC2)ccc2c3n(c(=NC(=O)c4cnc(N)nc4)nc12)CCN3 + CNC(=O)c1ccc(Nc2nc(OC3CCCC3)c3c(-c4ccc5nc(C)oc5c4)c[nH]c3n2)c(OC)c1 displays IC50 of 0.00994 µM

IC50 recorded for this compound, CC1COCCN1c1cc(C2(S(C)(=N)=O)CC2)nc(-c2ccnc3[nH]ccc23)n1 (stereo not given) + CNC(=O)c1ccc(Nc2nc(OC3CCCC3)c3c(-c4ccc5nc(C)oc5c4)c[nH]c3n2)c(OC)c1 , is 2.53 µM

The compound identified as O=c1[nH]cc(F)c(=O)[nH]1 + CN1CCN(c2cc(C(=O)Nc3cc4cc(-c5cnn(C)c5)ccc4cn3)ccn2)CC1 registered its IC50 at < 0.0316 µM

Entry Cn1ncnc1[C@H]1c2n[nH]c(=O)c3cc(F)cc(c23)N[C@@H]1c1ccc(F)cc1 + CN1CCN(c2cc(C(=O)Nc3cc4cc(-c5cnn(C)c5)ccc4cn3)ccn2)CC1 , IC50 reported as < 0.000316 µM

Consider O=c1[nH]cc(F)c(=O)[nH]1 + CNC(=O)c1ccc(Nc2nc(OC3CCCC3)c3c(-c4ccc5nc(C)oc5c4)c[nH]c3n2)c(OC)c1 . Its measured IC50 is > 10 µM

Reported IC50 of COc1ccc([C@@H](O)c2cc(-c3ncnc4cc(N5CCOCC5)ccc34)c(F)cc2Cl)nn1 + CNC(=O)c1ccc(Nc2nc(OC3CCCC3)c3c(-c4ccc5nc(C)oc5c4)c[nH]c3n2)c(OC)c1 : 2.27 µM

Record summary for CC1(C)CCC(CN2CCN(c3ccc(C(=O)NS(=O)(=O)c4ccc(NCC5CCOCC5)c([N+](=O)[O-])c4)c(Oc4cnc5[nH]ccc5c4)c3)CC2)=C(c2ccc(Cl)cc2)C1 + CNC(=O)c1ccc(Nc2nc(OC3CCCC3)c3c(-c4ccc5nc(C)oc5c4)c[nH]c3n2)c(OC)c1 : reported IC50 = 6.42 µM

Form field IC50, entry CC(=O)O[C@H]1C(=O)[C@@]2(C)[C@H]([C@H](OC(=O)c3ccccc3)[C@]3(O)C[C@H](OC(=O)[C@H](O)[C@@H](NC(=O)c4ccccc4)c4ccccc4)C(C)=C1C3(C)C)[C@]1(OC(C)=O)CO[C@@H]1C[C@@H]2O + CNC(=O)c1ccc(Nc2nc(OC3CCCC3)c3c(-c4ccc5nc(C)oc5c4)c[nH]c3n2)c(OC)c1 : > 10 µM

Given item Nc1ccccc1NC(=O)c1ccc(CNC(=O)OCc2cccnc2)cc1 + CNC(=O)c1ccc(Nc2nc(OC3CCCC3)c3c(-c4ccc5nc(C)oc5c4)c[nH]c3n2)c(OC)c1 , the value recorded as its IC50 is 1.02 µM

Please fill in: IC50 reported for Nc1ccn(C2OC(CO)C(O)C2(F)F)c(=O)n1 (stereo not given) + CN1CCN(c2cc(C(=O)Nc3cc4cc(-c5cnn(C)c5)ccc4cn3)ccn2)CC1 = < 0.0316 µM

Item: CCc1c2c(nc3ccc(O)cc13)-c1cc3c(c(=O)n1C2)COC(=O)[C@]3(O)CC + CN1CCN(c2cc(C(=O)Nc3cc4cc(-c5cnn(C)c5)ccc4cn3)ccn2)CC1 | IC50: < 0.00316 µM

The compound listed as Cn1ncnc1[C@H]1c2n[nH]c(=O)c3cc(F)cc(c23)N[C@@H]1c1ccc(F)cc1 + CNC(=O)c1ccc(Nc2nc(OC3CCCC3)c3c(-c4ccc5nc(C)oc5c4)c[nH]c3n2)c(OC)c1 shows IC50 equal to > 0.1 µM

Entry under test: C=C(F)C(=O)N1CCN(c2nc(OCC3CCCN3C)nc3c2CCN(c2cccc4cccc(Cl)c24)C3)CC1CC#N (stereo not given) + CNC(=O)c1ccc(Nc2nc(OC3CCCC3)c3c(-c4ccc5nc(C)oc5c4)c[nH]c3n2)c(OC)c1 . Its IC50 was 4.05 µM
